procedure-text: acute toxicity in mice (LD50)
measurement-context: mouse, in vivo, ip
Protocol: First of all, the compounds of the present invention are characterized by a low acute toxicity and a very favourable therapeutic index. The compounds were administered by oral and intraperitoneal route.
test-readout: LD50 (mg/kg)
Give bare numbers, in mg/kg.

Some molecules with recorded LD50:
molecule="Nc1ccc2c(c1)CCCC1CC(=O)NN=C21 (racemic)" test_readout=LD50 observed=483
molecule="CC(=O)Nc1ccc2c(c1)CCC1CC(=O)NN=C21 (racemic)" test_readout=LD50 observed=360
molecule="CCCCN1N=C2c3ccc(N)cc3CCC2CC1=O (racemic)" test_readout=LD50 observed=1000
molecule="CC(=O)Nc1ccc2c(c1)CC1CC(=O)NN=C21 (racemic)" test_readout=LD50 observed=310
molecule="Nc1ccc2c(c1)CCC1CC(=O)NN=C21 (racemic)" test_readout=LD50 observed=610

Here is the next item to consider.
For this molecule ( Nc1ccc2c(c1)CC1CC(=O)NN=C21 (racemic) ), measured LD50 is 200

----------
Tested on: sudden death induced by arachidonate in mice
procedure-text: protection against sudden death induced by arachidonate in mice
Assay type: in vivo
measurement-context: oral, screening dosage 20 mg/kg vs ASA 200 mg/kg
Excerpt: The same compounds from BBR-1507 to BBR-1513, given orally, protected against sudden death induced by arachidonate in mice.
test-readout: increase of protection as compared with ASA

Some compounds with recorded increase of protection as compared with ASA:
compound="CC(=O)Nc1ccc2c(c1)CC1CC(=O)NN=C21 (racemic)" observed=20-30%
compound="CC(=O)Nc1ccc2c(c1)CCC1CC(=O)NN=C21 (racemic)" observed=40%
compound="Nc1ccc2c(c1)CC1CC(=O)NN=C21 (racemic)" observed=20-30%

Here is the next item to consider.
For this compound ( Nc1ccc2c(c1)CCC1CC(=O)NN=C21 (racemic) ), measured increase of protection as compared with ASA is 20-30%

----------
procedure-text: acute toxicity in mice (LD50)
measurement-context: mouse, in vivo, po, os
test-readout: LD50

Below are 6 molecules. Give each one its LD50.
1. Nc1ccc2c(c1)CC1CC(=O)NN=C21 (racemic)
2. CCCCN1N=C2c3ccc(N)cc3CCC2CC1=O (racemic)
3. CC(=O)Nc1ccc2c(c1)CCCC1CC(=O)NN=C21 (racemic)
4. Nc1ccc2c(c1)CCC1CC(=O)NN=C21 (racemic)
5. Nc1ccc2c(c1)CCCC1CC(=O)NN=C21 (racemic)
6. O=C1CC2CCc3cc(NC(=O)CCl)ccc3C2=NN1 (racemic)

**Result**
400 mg/kg
> 1000 mg/kg
> 1000 mg/kg
> 1000 mg/kg
700 mg/kg
> 1000 mg/kg

Below are 2 molecules. Give each one its LD50.
1. CC(=O)Nc1ccc2c(c1)CC1CC(=O)NN=C21 (racemic)
2. CC(=O)Nc1ccc2c(c1)CCC1CC(=O)NN=C21 (racemic)

**Result**
1. > 1000 mg/kg
2. > 1000 mg/kg
